Molecular target: 18 Env antigens
Assay: ELISA
OBSERVABLE: mean fold change in ELISA binding titer (OD450) versus parental 2411a (fold)
Answers are plain numbers, in fold.

Below: 2 binders and their reported mean fold change in ELISA binding titer (OD450) versus parental 2411a.
• 2411a revertant of light chain S27aF (CDR L1) (antibody, V domains shown) VH: QVQLVQSGAEMKKPGASVRVSCEASGYTFTDYVLHWMRQAPGQGIEWLGWIKPRYGAVNYAHKFQGRVSMTRDTSIDTAYLELINLRSDDTAIYYCARSFDSDYEWWFTYWGQGTLVSVSA VL: EIVLTQSPGTLSLSPGERATLSCRASYSISRDYLAWYQQRPGQAPKLLIYGTTTRASGIPDRFSGSGSGTDFTLTISRLEPEDFAVYYCQQYEFFGLGTKVEIK = 1.6
• 2411a revertant of heavy chain Y33V/M34L (CDR H1) (antibody, V domains shown) VH: QVQLVQSGAEMKKPGASVRVSCEASGYTFTDYYMHWMRQAPGQGIEWLGWIKPRYGAVNYAHKFQGRVSMTRDTSIDTAYLELINLRSDDTAIYYCARSFDSDYEWWFTYWGQGTLVSVSA VL: EIVLTQSPGTLSLSPGERATLSCRASYFISRDYLAWYQQRPGQAPKLLIYGTTTRASGIPDRFSGSGSGTDFTLTISRLEPEDFAVYYCQQYEFFGLGTKVEIK = 3.9

Attention now turns to another entry.
**Query** Input 2411a revertant of light chain Q27Y (CDR L1) (antibody, V domains shown) VH: QVQLVQSGAEMKKPGASVRVSCEASGYTFTDYVLHWMRQAPGQGIEWLGWIKPRYGAVNYAHKFQGRVSMTRDTSIDTAYLELINLRSDDTAIYYCARSFDSDYEWWFTYWGQGTLVSVSA VL: EIVLTQSPGTLSLSPGERATLSCRASQFISRDYLAWYQQRPGQAPKLLIYGTTTRASGIPDRFSGSGSGTDFTLTISRLEPEDFAVYYCQQYEFFGLGTKVEIK , output reported mean fold change in ELISA binding titer (OD450) versus parental 2411a.
**Result** 1.8

Hello, the source for this data is paper PMC8020832, in case you need it.
